- EXPERIMENT DESCRIPTION: yeast display, Sf9 membrane polyspecificity reagent, FACS + sequencing; frameworks hold sequencing errors
TEST READOUT: polyreactivity (PSR sort gate)

1) QVQLVESGGGLVQAGGSLRLSCAASGSIFGYYAMGWYRQAPGKERELVAAITRSGGSTYYADSVKGRFTISRDNAKNTVYLQMNSLKPEDTAVYYCNAVRYAVRLPAFPGYDYWGQGTQVTVSS    high polyreactivity
2) QVQLVESGGGLVQAGGSLRLSCAASGGIFSSYAMGWYRQAPGKERELVASISRRGTSTYYADSVKGRFTISRDNAKNTVYLQMNSLKPEDTAVYYCAAGTKYTSAVHFYYWGQGTQVTVSS    high polyreactivity

---

- EXPERIMENT DESCRIPTION: yeast display, Sf9 membrane polyspecificity reagent, FACS + sequencing; frameworks hold sequencing errors
TEST READOUT: polyreactivity (PSR sort gate)

1) QVQLQESGGGLVQAGGSLRLSCAASGSIYDGFNMGWYRQAPGKEREFVAAISYGASTYYADSVKGRFTVSRDNAKNSVYLQMNSLKPEDTAVYYCAVYDELYHVLVYWGRGTQVTVSS    low polyreactivity
2) QVQLVESGGALVQAGVSLRLSCAASGSIFRFYAMGWNKQAPGKERELVAAITSGGSTNYADSVKGRFTISRDNEKNTVYLQMNSLKPEDTAVFYCAAELVFFFIFDYWGQGTQVTVSS    low polyreactivity

---

- EXPERIMENT DESCRIPTION: yeast display, Sf9 membrane polyspecificity reagent, FACS + sequencing; frameworks hold sequencing errors
TEST READOUT: polyreactivity (PSR sort gate)

Sample answers from the record:
1) QVQLVESGGGLVQAGGSLRLSCAASGLTFKYYAMGWYRQATGKERELVARISRGGNTNYADSVKGRFTISRDNAKNTVYLQMNSLKPEDTAVYYCAATVRVYDYWGQGTQVTVSS    high polyreactivity
2) QVEHVDSGGGLVQAGGSLRLSCAASGRTIWDYMGWYRQAPGKEREVVATITSSGGSTYYADSVKGRFTISRDNAKNTVYLQMNSLKPEDTAVYYCNADWYLWSTFAQGYGYWGQGTQVTVSS    high polyreactivity
3) QVQLVESGGGLVQAGGTLRLSCAASGFLFVFYDMGWYRQAPAKERELVAGITRNDGSTYYADSVKGRFKISRDNAKNTVYLLMNSLKPEDTAVYYCAADRVRRNDKLAYDYWGQGTQVTVSS    low polyreactivity
4) QVQLVESGGGVVQAGGSLRLSCAASGSIFNRYAMGWYRQAPGKERELVAATSSGGSTYYADSVKGRFTISRDNAKNTVYLQMNSLKPEDTAVYYCAARSRYRSTPPTYDYWGQGTQVTVSS    low polyreactivity

Okay, now this sequence:
q: Please report the recorded polyreactivity (PSR sort gate) for QVQLVESGAGLVQAGGSLRLTCAPSGSIFNIYSMGWYRQAPGKDRELVATITGIADSTYYADSVKGRFTISRDNANNTVYLQMNILKPEDTAFYYCAADIYVAEYDYWGQGTQVTVSS .
a: low polyreactivity

---

- EXPERIMENT DESCRIPTION: yeast display, Sf9 membrane polyspecificity reagent, FACS + sequencing; frameworks hold sequencing errors
TEST READOUT: polyreactivity (PSR sort gate)

1. QVQLVESGGGLVQAGGSLRLSCDASGSIFSKYAMGWYRQAPGKERELVAAISWSGTSTYYADSVKGRFTISRDNAKNTVYLQMNSLKPEDTAVYYCAASSPRSLSLLGYWGQGTQVTVSS    low polyreactivity
2. QVQLVESGGGLVQAGGSLRLSCAASGGTFTSYAMGWYRQAPGKERELVAAISWSGGSTYYADSVKGRFTISRDNAKNTVYLQMKSLKPEDTAVYYCAAVFYRYNAVRYDYWGQGTQVTVSS    high polyreactivity
3. QVQLVESGGGLVQAGGSLRLSCAASGSIFWLYAMGWYRQAPGKERELVATISSTGSTDYADSVKGRFTISRDNAKNTVYLQMNSLKPEDTAVYYCATDVFYSIFTPSPFEYDYWGQGTQVTVSS    high polyreactivity
4. QVQLVESGGGLVQAGGSLRLSCAASGRIFRRNAMGWYRQAPGKEREFVAAITSSGDSTNYADSVKGRFTISRDNAKNTVYLQMNSLKPEDTAVYYCAADWARSALQGFYYWGQGTQVTVSS    low polyreactivity

Okay, now this sequence:
q: Please report the recorded polyreactivity (PSR sort gate) for QVQLVESGGGLVQAGGSLRLSCAASGSSLWENAMGWYRQAPGKERQLVATISVSGGGTYYADSVKGRFTISRDNAKNTVYLQMTSLKPEDTAVYYCTARYGNESQGWADYWGQGTQVTVSS .
a: low polyreactivity

---

- EXPERIMENT DESCRIPTION: yeast display, Sf9 membrane polyspecificity reagent, FACS + sequencing; frameworks hold sequencing errors
TEST READOUT: polyreactivity (PSR sort gate)

Sample answers from the record:
1. QVQLVESGGGLVQAGGSLRLSCAASGFTFDINAMGWSRQAPGKERELVAAISRSGGRTYYADSVKGRFTISRDNAKNTVYLQMNSLKPDDTAVYYCAARYPERRYNTFDYWGQGTQVTVSS    high polyreactivity
2. QVQLVESGGGLVQAGGSLRLSCAASGRNFEKNAMGWSRQAPGKERELVASIDFRGGRTYADSVKGRFTISRDNAKNTVYLQMISLKPEDTAVYYCAKRQVGRKYVRYEYDSWGHGTQVTVSS    low polyreactivity
3. QVQLVESGGGLVQAGGSLRLSCAASGYIFYDNAMGWYRQAPGKDREFVSTYYADSVKGRFTISRDNAKNTVYLQMNSLKPEDTAVYYCAAVYSHEGYCWGQGTQVTVSS    low polyreactivity
4. QVQLHESGGGLVQAGGGLRLSCAASGSISSTGFMGWYRQAPGKESEPVAAIAPGTTTYYADSVKGRFTISRDNAKNTVYLHMKSLRPEDTAVYYCAVFTDNRVAFLYWGEGTQVTVSS    low polyreactivity
5. QVQLVESGGGLLQAGGSLRLSCAASGFIFADNAMGRYIQAPGKERELVAGITSGGITNYADSVKGRFTISRDNAKNTVYLQMNSLKPEDSAVYYCAVYYRRWLSRYDYWGQGTQVTVSA    low polyreactivity
6. QVQLVESGGGLVQAGGSLRLSCAASGFTFNYAMGWYTQAPGKERELVAAISSAGTTYYADSVKGRFTISRDNAKNTVYLQMNSLKPEDTAVYYCAALARPKQDRYRYYYWGQGTQVTVSS    high polyreactivity
7. QVQLLESGGGLVQAGGSLRLSCAASGSIFFYYAMGWDRQAPGKERELVATITSGGSTSYADSVKGRFTISRDNAKNTVYLQMNSLKPEDTAVYYCAARKVTKSTYNYWGQGTQVTVSS    low polyreactivity

Okay, now this sequence:
q: Please report the recorded polyreactivity (PSR sort gate) for QVQLVESGGGLFQAGGSLRLSCAASGFTFHRNAMGWYRQAPGKERELVAAITLNGGSSTYYADSVKGRFTISRDNAKNTVYLQMNSLKAEDTAVYSCALDSYSYTFSKNSDPAEYEYWGQGTQVTVSS .
a: low polyreactivity

---

- EXPERIMENT DESCRIPTION: yeast display, Sf9 membrane polyspecificity reagent, FACS + sequencing; frameworks hold sequencing errors
TEST READOUT: polyreactivity (PSR sort gate)

1) QVQLVESGGGLVQAGASLRLSCAASGRTFLRYAMGWYRQAPGKERELVAAISSRGGSTYYADSVKGRFTISRDNAKNTVYLQMNSLIPEDTAVYYCAARGCRSQVPVRVFRYDFWGQGTQVTVSS    high polyreactivity
2) QVQLVESGGGLVQAGGSLRLSCAASGRTFIWYAMGWYRQAPGKERELVAAISYSGASTYYADSVKGRFTNSRDNAKNTVYLQMNSLKPEDTAVYYCYPLGTYSYDYWGQGTQVTVSS    high polyreactivity
3) QVQLVESGGGLVQAGGSLRLSCAASGIIFRYYAMGWYRQAPGKERELVAAISGTGSTKYADSVKGRFTISRDNAKNTVYLQMNSLKPEDTAVYYCNPRKRYARYGGSGYDYWGQGTQVTVSS    high polyreactivity

---

- EXPERIMENT DESCRIPTION: yeast display, Sf9 membrane polyspecificity reagent, FACS + sequencing; frameworks hold sequencing errors
TEST READOUT: polyreactivity (PSR sort gate)

1) QVQLVESGGGLVQAGGSLRLSCAASGRIFFYAMGWYRQAPGKERELVASITTSGTSTYYADSVKGRFTISRDNAKNTVYLQMNSLKPEDTAVYYCNARVRYTVGPLSSLDGEYWGQGTQVTVSS    low polyreactivity
2) QVQLVESGGGLVQAGGSLRLSCAASGSNFARYAMGWYRQAPGKERELVAAINSTVSTNYADSVNGRFTISRDNPKNTVYLQMNSLKPEDTAVYYCAVDIVRGGRDSWGQGTQVTVSS    low polyreactivity
